Origin of values: the RepoRT retention time repository (doi:10.1038/s41586-021-03707-9)

Test: Waters ACQUITY UPLC BEH C18, 100 × 2.1 mm, 1.7 µm, 40 °C, 0.28 mL/min, estimated dead time 0.63 min; A: water + 6.5 mM ammonium hydroxide; B: methanol + 6.5 mM ammonium hydroxide; gradient (min/%B) 0/0.5 4/70 4.5/98 5.4/98
Details: stereoisomer not certain
Measured Metric: LC retention time (min)
Dear colleague, please return just the value in min, with no unit written.

Some solved entries appear below for comparison.
> print(dat)
                                   compound    measured.metric  unit  measured.result
1  O=C1OC(CO)C(O)C(O)C1O (stereo not given)  LC retention time   min            0.906
2  Nc1nc2c(ncn2C2CC(O)C(COP(=O)(O)O)O2)c(=O)[nH]1 (stereo not given)  LC retention time   min            0.923
3  NC(=O)C1=CN(C2OC(COP(=O)(O)OP(=O)(O)OCC3OC(n4cnc5c(N)ncnc54)C(O)C3O)C(O)C2O)C=CC1 (stereo not given)  LC retention time   min            0.901
4  Cc1cn(C2CC(O)C(COP(=O)(O)O)O2)c(=O)[nH]c1=O (stereo not given)  LC retention time   min            0.908
5  O=c1[nH]c(=O)c2ncn(C3OC(CO)C(O)C3O)c2[nH]1 (stereo not given)  LC retention time   min             1.11
6                            O=Cc1cccc(O)c1  LC retention time   min             3.55
7                  O=c1[nH]cc(CO)c(=O)[nH]1  LC retention time   min            0.855
8  O=c1ccn(C2CC(O)C(CO)O2)c(=O)[nH]1 (stereo not given)  LC retention time   min             1.87

Input: If you can, please state the reported LC retention time value of CCCC(=O)Nc1ccc(OCC(O)CNC(C)C)c(C(C)=O)c1 (stereo not given) .
Output: 4.82

Input: Need LC retention time, item OCC1OCC(O)C(O)C1O (stereo not given)
Output: 0.865
